Experimental Protocol: xn = mol fraction of the nth substance listed, in the solute-free solvent
Test Context: 298.15 K; x2 = 0.3

Compound	solubility (g/100 g solution)
CCCCOc1ccc(C(=O)CCN2CCCCC2)cc1.Cl + CO + C1CCOC1	18.4
O=C1CCc2ccc(OCCCCN3CCN(c4cccc(Cl)c4Cl)CC3)cc2N1 + CCC(C)=O + CCCO	2.68
O=C(O)c1ccc(C(=O)O)o1 + C1CCOC1 + O	5.24

---

Experimental Protocol: xn = mol fraction of the nth substance listed, in the solute-free solvent
Test Context: 278.15 K; x2 = 0.1
Property: solubility (g/100 g solution); scope: individual molecules

Molecule	solubility (g/100 g solution)
CCCCOc1ccc(C(=O)CCN2CCCCC2)cc1.Cl + CCO + O	34.6
CCCCOc1ccc(C(=O)CCN2CCCCC2)cc1.Cl + CO + C1CCOC1	3.9
O=C1CCc2ccc(OCCCCN3CCN(c4cccc(Cl)c4Cl)CC3)cc2N1 + CCC(C)=O + CCOC(C)=O	0.601
CCCCOc1ccc(C(=O)CCN2CCCCC2)cc1.Cl + CCO + CCOC(C)=O	4.4
O=C1CCc2ccc(OCCCCN3CCN(c4cccc(Cl)c4Cl)CC3)cc2N1 + CCC(C)=O + CCCO	0.703
CCCCOc1ccc(C(=O)CCN2CCCCC2)cc1.Cl + CCO + CCCCCC	2.56
O=C1CCc2ccc(OCCCCN3CCN(c4cccc(Cl)c4Cl)CC3)cc2N1 + CCC(C)=O + CC(C)=O	0.779
